Source of measurements: PubChem BioAssay AID886

SUBJECT_OF_TEST: 3-hydroxyacyl-CoA dehydrogenase type-2 (Homo sapiens) (UniProt Q99714)
Sequence (Q99714 whole entry, looked up): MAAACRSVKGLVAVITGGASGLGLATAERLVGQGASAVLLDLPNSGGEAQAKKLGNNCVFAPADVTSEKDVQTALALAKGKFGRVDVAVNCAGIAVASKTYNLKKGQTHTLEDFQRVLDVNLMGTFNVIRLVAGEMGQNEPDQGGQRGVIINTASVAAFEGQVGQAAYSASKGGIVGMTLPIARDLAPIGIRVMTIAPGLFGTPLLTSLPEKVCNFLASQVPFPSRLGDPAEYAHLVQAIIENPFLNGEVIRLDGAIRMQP
Sequence (Q99714 whole entry, looked up): as above
ASSAY_METHOD_TEXT: qHTS Assay for Inhibitors of HADH2 (Hydroxyacyl-Coenzyme A Dehydrogenase, Type II); further: on the % scale 0 is the no-effect control and ±100 the full control effect; nearly all actives have a fitted effect of over 60% in size
CONDITION_NOTES: recombinant HADH2, NADH fluorescence, beta-hydroxybutyryl-CoA; series mostly up to 57.1 µM
Hit rate of the full screen: of about 73,000 compounds, about 2,500 (3.4%) were called active. Inconclusive results (about 7%) are left out. The call rests on the fitted dose curve; in most records, active means well fitted inhibition curve with a large enough effect; inconclusive means small, poorly fitted or top-dose-only effect; inactive means no such curve, though single readings can be large or run the other way. The sample as a whole holds a higher share of actives than the screen did.
Pick from class 1 = active, class 0 = inactive when you respond.

See these solved cases before continuing.
[
  {
    "MOLECULE": "CCCC(=O)Nc1cccc(-c2cn3ccsc3n2)c1",
    "LABEL_CLASS": "class 0"
  },
  {
    "MOLECULE": "CCCn1c(-c2ccc(F)cc2)nc2c(NC3CCN(Cc4ccccc4)C3)nc(C)nc21 (centres undefined)",
    "LABEL_CLASS": "class 0"
  },
  {
    "MOLECULE": "COc1ccccc1C(=O)n1nc(-c2ccccc2)nc1N",
    "LABEL_CLASS": "class 0"
  },
  {
    "MOLECULE": "Cc1cc(C(=O)O)ccc1[N+](=O)[O-]",
    "LABEL_CLASS": "class 0"
  },
  {
    "MOLECULE": "COc1ccc(C(=O)n2nc(-c3ccc(Cl)cc3)nc2N)cc1OC",
    "LABEL_CLASS": "class 0"
  },
  {
    "MOLECULE": "CC(C)C1N=C2c3ccccc3N=C(SCC(=O)c3ccc(O)c(O)c3)N2C1=O (centres undefined)",
    "LABEL_CLASS": "class 0"
  },
  {
    "MOLECULE": "c1ccc2[nH]c(NCCN3CCOCC3)nc2c1",
    "LABEL_CLASS": "class 0"
  },
  {
    "MOLECULE": "COc1ccc(-n2c(C)cc(C(=O)CSc3nnc(-c4cccs4)o3)c2C)cc1",
    "LABEL_CLASS": "class 0"
  },
  {
    "MOLECULE": "CC(C)[C@@H](CC(=O)N[C@@H]1CCNC[C@H]1C(=O)N[C@H](CC(=O)N[C@@H](CCC(=O)O)CC(=O)O)Cc1ccccc1)NC(=O)C[C@H](CO)NC(=O)[C@@H]1CNCC[C@H]1N",
    "LABEL_CLASS": "class 0"
  },
  {
    "MOLECULE": "Cc1ccc(-c2nn(CC(C)(C)C)c3ncnc(N)c23)cc1",
    "LABEL_CLASS": "class 0"
  }
]

### Prompt Dear colleague, could you share the recorded outcome for O=C(c1ccco1)N1CCC2(CC1)CN(c1ncccn1)C2 when you have a moment?
### Response class 0

### Prompt Dear colleague, could you share the recorded outcome for COC(=O)c1ccccc1NC(=O)c1ccccc1NS(C)(=O)=O when you have a moment?
### Response class 0

### Prompt Dear colleague, could you share the recorded outcome for CCN(CC)CCCCn1c(-c2ccccc2)nc2c(N3CCOCC3)nc(C)nc21 when you have a moment?
### Response class 0

### Prompt Dear colleague, could you share the recorded outcome for COc1ccc(-c2nnc(SCC(=O)c3cccs3)o2)c(OC)c1 when you have a moment?
### Response class 0
